- TESTED ON: UniProt:O60779
- Sequence (O60779 1-497): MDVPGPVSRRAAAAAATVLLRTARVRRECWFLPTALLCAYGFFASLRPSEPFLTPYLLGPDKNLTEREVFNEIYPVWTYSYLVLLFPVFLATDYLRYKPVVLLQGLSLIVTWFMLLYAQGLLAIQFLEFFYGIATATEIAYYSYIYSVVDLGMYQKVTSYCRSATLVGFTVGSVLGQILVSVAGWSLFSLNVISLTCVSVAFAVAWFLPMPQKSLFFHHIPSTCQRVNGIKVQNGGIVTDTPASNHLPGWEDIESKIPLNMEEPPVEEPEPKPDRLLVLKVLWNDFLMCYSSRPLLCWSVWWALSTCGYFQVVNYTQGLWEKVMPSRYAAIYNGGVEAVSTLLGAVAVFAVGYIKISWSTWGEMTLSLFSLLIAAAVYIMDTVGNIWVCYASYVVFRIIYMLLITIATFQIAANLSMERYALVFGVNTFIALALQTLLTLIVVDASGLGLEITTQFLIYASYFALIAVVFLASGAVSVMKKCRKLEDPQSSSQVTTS
- ASSAY EXPLANATION: SLC19A2 inhibitor screen: [3H]-thiamine uptake in SLC19A2-overexpressing HEK293 cells
- Type: cell-based
- Parameters: host or cells: HEK293, stably overexpressing SLC19A2 and transiently transfected with a further 500 ng wild-type plasmid
- TEST PARAMETERS: HEK293, 10 min; at 1 mM; read-out: reduction in thiamine transport (designated SLC19A2 inhibitor)
- Method: Plasmids encoding wild-type SLC19A2 and three TRMA-associated variants were generated by Genscript Inc. (Piscataway, USA). Methods for generation of stably overexpressing SLC19A2 cell lines and uptake studies have been previously described ([11], [12]). Inhibition and kinetic studies were performed in SLC19A2-overexpressing stable HEK293 cells transiently transfected with an additional 500 ng of SLC19A2 wild-type plasmid. […]
Entries annotated with measured inhibition at 1000 µM
TEST READOUT: inhibition at 1000 µM

>  <COMPOUND>
CC[C@H]1OC(=O)[C@H](C)[C@@H](O[C@H]2C[C@@](C)(OC)[C@@H](O)[C@H](C)O2)[C@H](C)[C@@H](O[C@@H]2O[C@H](C)C[C@H](N(C)C)[C@H]2O)[C@](C)(O)C[C@@H](C)C(=O)[C@H](C)[C@@H](O)[C@]1(C)O [Erythromycin]

>  <TESTED ON>
UniProt:O60779

>  <OBSERVED MEASUREMENT>
≥ 50%

$$$$
>  <COMPOUND>
CCCc1ncc(C[n+]2ccccc2C)c(N)n1 [Amprolium]

>  <TESTED ON>
UniProt:O60779

>  <OBSERVED MEASUREMENT>
≥ 50%

$$$$
>  <COMPOUND>
COc1cc(Cc2cnc(N)nc2N)cc(OC)c1OC [Trimethoprim]

>  <TESTED ON>
UniProt:O60779

>  <OBSERVED MEASUREMENT>
≥ 50%

$$$$
>  <COMPOUND>
Cc1cnc(Nc2ccc(OCCN3CCCC3)cc2)nc1Nc1cccc(S(=O)(=O)NC(C)(C)C)c1 [Fedratinib]

>  <TESTED ON>
UniProt:O60779

>  <OBSERVED MEASUREMENT>
≥ 50%

$$$$
>  <COMPOUND>
COc1c(C)c2c(c(O)c1C/C=C(\C)CCC(=O)OCCN1CCOCC1)C(=O)OC2 [Mycophenolate mofetil]

>  <TESTED ON>
UniProt:O60779

>  <OBSERVED MEASUREMENT>
≥ 50%

$$$$
>  <COMPOUND>
COc1ccc2[nH]c([S+]([O-])Cc3ncc(C)c(OC)c3C)nc2c1 (stereo not drawn) [Omeprazole]

>  <TESTED ON>
UniProt:O60779

>  <OBSERVED MEASUREMENT>
≥ 50%

$$$$
>  <COMPOUND>
Cc1c(OCC(F)(F)F)ccnc1C[S+]([O-])c1nc2ccccc2[nH]1 (stereo not drawn) [Lansoprazole]

>  <TESTED ON>
UniProt:O60779

>  <OBSERVED MEASUREMENT>
≥ 50%

$$$$
>  <COMPOUND>
COc1ccnc(C[S+]([O-])c2nc3ccc(OC(F)F)cc3[nH]2)c1OC (stereo not drawn) [Pantoprazole]

>  <TESTED ON>
UniProt:O60779

>  <OBSERVED MEASUREMENT>
≥ 50%

$$$$
>  <COMPOUND>
N=C(N)NC(=O)c1nc(Cl)c(N)nc1N [Amiloride]

>  <TESTED ON>
UniProt:O60779

>  <OBSERVED MEASUREMENT>
≥ 50%

$$$$
